Assign apparent KD of MS2 coat protein to each entry below.
tested on: MS2 coat protein; assay: apparent KD of MS2 coat protein; designed switch direction (-1 OFF switch, 1 ON switch): -1; higher = weaker reporter binding; details: input ligand: none
Quick reminder: number only, in nM, skip the unit.

Which apparent KD of MS2 coat protein is reported for this sequence? UGCGUUUGAGGAUAUACGUAGAAAUAGAUUCAUGUAAAACUACAUGAGGAUCACCCAUGUAGAAGGCAAGCGCU [Mat - Exclusion 2 - JL Mod - D39] (Eterna round: R97, puzzle: Exclusion 2) 26.4

Also need CCUCCACAUGAGGAUCACCCAUGUCAGGAUAUCGUGUGCGCGUUUUCGGUCUUUCGCGCGAGAAGGGACGACUG (Eterna round: R96, puzzle: Exclusion 1) , thanks. 30.2

Also need AUUAAACGUGUAGGAUAUGCGUGGCGAAGCUAUGCAGAAGGACAUGAGGAUCACCCAUGUUCUAGCGUCUGCGUACAGAUGCUA [JL eng1 1.35 mod 5] (Eterna round: R96, puzzle: Exclusion NG 1) , thanks. 16.3

----------
test system: MS2 coat protein; experiment: apparent KD of MS2 coat protein; designed switch direction (-1 OFF switch, 1 ON switch): -1; higher = weaker reporter binding; conditions: Eterna round: R98; input ligand: none
Assay Endpoint: apparent KD of MS2 coat protein (nM)
Quick reminder: number only, in nM, skip the unit.

State its apparent KD of MS2 coat protein on MS2 coat protein: AUGACAGGCAAAGCGCAACGGCGAACAUGAGGAUCACCCAUGUAGGAUAUGCUACACAAAGUGUAGCAGAAGGACAUACGACGA [Ex NG2 #82] 41.2

Also need AAUAUAAAAGAGCUGGAUAACUCAACAUGAGGAUCACCCAUGUAGGAUAUCAGCACGAUAAGUGCUGAGAAGGACAACCAGCUC [Denovo 69] , thanks. 14.8

Also need CCAUACAUGAGGAUCACCCAUGACAUGAGGAUCACCCAUGUGCAGGAUAUACGUGAUAUAAUAAAGUAGAAGGGCAGACCAAAA [LRO002_Exclusion NG 3] , thanks. 74.2

Also need GCACUGGAUGUAGGAUAUCAGGACGAUAAGUCCUGAGAAGGACAUGAGGAUCACCCAUGUGAAUAAAACCAGUGCAAUAAUAUA [Denovo Exng1 22] , thanks. 13.4

Also need UGUUGUUACGCAGGAUAUUGCCAACAGGCAGUAGGAUAUCCGAAAGGAGAAGGACCGCCAACAGGCGAGAAGGGCGGGUUAACA [pwkr exNG2 2xF7 2FMN.10 scored 83] , thanks. 57.9

----------
Assign apparent KD of K4 kissing-loop reporter to each entry below.
tested on: K4 kissing-loop RNA reporter; assay: apparent KD of K4 kissing-loop reporter; higher = weaker reporter binding; settings: Eterna round: R107; input ligand: arginine 13.2 mM;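 note: bound reporter read as fluorescence of individual clusters on recovered sequencing chips by microscopy, with normalized cluster intensities fitted with a binding model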
Respond with the figure and its unit, in that order.

Which apparent KD of K4 kissing-loop reporter is reported for this sequence? UGACUGGACUGAAGGAGCGCUAAACUCCUAGUGAUGUUAGGGAACCGAGACAAAGUCUCGAGGCAGGUAGGUCGCAGUCUAGUCU [FiskerMod 2 - Jieux - Same State - Arginine B] 253 nM

Also need GGCAGUGAUGUUGCCAGUGGCAGAUUGGAAGGAGCGUGGUGAGACACAGGUAGGUCGCUAAUUGAAGUUGCUGUCACUAGAAUGC [whbob_Ex_Arginine_A_2t132] , thanks. 280 nM

Also need GAGGUACAGGCGGCCGCCACUAGUGAUGUUAGUGAUAAAAGAUAUAGUAAAUAUCGGCAUGUAGAUAGGACCGGGCCUGAUGGAG [ptvcmullin] , thanks. 214 nM

Also need `UCCUAGGCUCGAAAGAGCCUAGGAUUAUCUCAGGAUAUCCGGAAACGGAGAAGGGAGAAACUAGUGAUGUUAGGGAUUCCCUAUU` , thanks. 184 nM

Also need UAAAUUAAGCUUUGCUGAUUAAUAAGCGAUACCAGCAAAUAAUGAUGCCCUUGGCAGCGUUAUAAUCUAGUGAUGUUAGAUUAGU [Not much to say about this one] , thanks. 106 nM

Also need UAGUGAAUAGAAGGAUAUUGAUAUGAAAGAUGCAGUGAUGUUGCCCGUAGCAGUCAGUAAUACGUGCAAGAAGGUCUGUGCGCGA [theeternabot_exclusion_KL_FMN_B_3] , thanks. 95.4 nM

Also need UAGCGGUGGAGGCCACCGCUAUUCUGAGAAGGAGCGCAGAUGACUGCAGGUAGGUCGCUUAGAGCUUGCAGUGAUGUUGCAAGUU [Araatlaqu] , thanks. 144 nM

Also need `UGAACUUUUGCUAGGAACCGUCUAGCUCUUUAGGAUAUCUGGAAACAGAGAAGGAAAGACCUACAGAGUGAUGUUCUGCGUUCAU` , thanks. 268 nM

Also need CCUAUCUGUUACGAUACCAGUCAAAGAUAUUUUAUCAAUGCCCUCACCGAGUGAUGUUCGGACCCUUGGCAGCGUCUGGGAUAGG [pnnbmullin] , thanks. 138 nM

Also need UUUGGAAGCGGUGUUGAUUAGGGAGCGGAAGGAGCGCCGAUUAUGGCAGGUAGGUCGCCGGAAUGUAGUGAUGUUGCAUAGAGGU [ExArgA.X] , thanks. 130 nM

Also need UGUGUGUAGGGAAGGAGCGCCGAGAGAAGAAGAAAAGAGUGAUGUUCAAGACAAUAAAGACGGCAGGUAGGUCGCCCUGUGUGUG [Default title] , thanks. 706 nM

Also need AUUUGUUUAUGUGAUACCAGACUUUGCAGUGAUGUUGCAUUUAUUUUAGAAUAUAAUUUAGUCCCUUGGCAGCACUAUGUAUUUA [JR_SSTheophyB_Sub008] , thanks. 110 nM

Also need `CCCAAGGGCGAACCGGUAUGAUCGACGGAUACCAGAGGCGAAAGCCUCCCUUGGCAGCCGGCUGUAGUGAUGUUACACUGGUUCU` , thanks. 98.9 nM

Also need AUCUGGUUGGGCGAUACCAGUUUGGCAUAGUGAUGUUAUGCAACGCUCAGUGCAAGGCCAAACCCUUGGCAGCGCACAUCCUUUC [theeternabot_exclusion_KL_Theo_B_3] , thanks. 99.1 nM

Also need GCGCGUGUUAAAGGAUAUAGCAGGUGAUACAAGAAAGUGAGUGAUGUUUAUGUAGAUGAUGAUAUGUUAGAAGGUUAACAAGCGC [abcdefghijklmnopq] , thanks. 606 nM

Also need AGUUCUUGCCGAAGGAGCGAGGCAGAGUGAUGUUCUGCAGGAGGUCGAAAGACCUCCCUGCCUCAGGUAGGUCGCGGCAUGAACA [Omei KL Arginine B Exc A v1] , thanks. 590 nM

Also need UGCACGGGCUCGGCCGCCACUCCAGCGGGUCGCAAGGUCCGCUACUGAGUGAUGUUCGGUUGGAGGAGGACCGGGAGCCCGUGCG [#2 Exclusion - Tryptophan B Attempt #31 (HarryS)] , thanks. 114 nM

Value source: the supplement of paper PMC9170038
